system: HOP-92 NSCLC; assay: NCI tumour cell line growth inhibition, 48 h
Catalogue of TGI values

{"compound": "N#CC(=S)Nc1ccc(Cl)c(Cl)c1", "measure_name": "TGI", "result": "9.59 µM"}
{"compound": "CC[C@@]1(O)C(=O)OCc2c1cc1n(c2=O)Cc2c-1nc1ccc(O)cc1c2CC[Si](C)(C)C", "measure_name": "TGI", "result": "0.0308 µM"}
{"compound": "Cc1cc2c(cc1Cl)SC(N/N=C(\\N)c1ccc(Cl)cc1)=NS2(=O)=O", "measure_name": "TGI", "result": "58.9 µM"}
{"compound": "Cc1ccc([N+](=O)[O-])cc1NC(=O)C(=O)Cc1occc(=O)c1O", "measure_name": "TGI", "result": "> 100 µM"}
{"compound": "N#Cc1c(-c2ccccc2)c(N=Nc2ccc(F)cc2)c(=O)n2c1[nH]c1ccccc12", "measure_name": "TGI", "result": "14.2 µM"}
{"compound": "NS(=O)(=O)c1ccc(NNc2c3ccccc3nc3ccccc23)cc1", "measure_name": "TGI", "result": "23.4 µM"}
{"compound": "CCC(C)C1NC(=O)C2CCCN2C(=O)C(CC2CO2)OC(=O)CCNC(=O)C(C)N(C)C(=O)C(C(C)C)N(C)C1=O (centres undefined)", "measure_name": "TGI", "result": "> 100 µM"}
{"compound": "C/C(=N\\NC(=O)c1cccnc1)c1cccc(/C(C)=N/NC(=O)c2cccnc2)n1", "measure_name": "TGI", "result": "59.1 µM"}

For CCCN1CN(C(C(=O)N[C@@H]2C(=O)N3C2SC(C)(C)C3C(=O)O)c2ccccc2)CSC1=S (some centres undefined) , what is its reported TGI?
> 100 µM

I am curious: what TGI value has been reported for O=C(Nc1n[nH]c2nc(-c3ccco3)ccc12)C1CC1 ?
> 7.9 µM

Report TGI for C=C1C[C@@H](O)[C@@H](Br)C(C)(C)[C@]12CCC(C)(Cl)C(Br)C2 (some centres undefined) please.
> 73.6 µM

Value lookup for TGI; key = CCCCCC(O)[C@H]1C(=O)C[C@@H](O[Si](C)(C)C(C)(C)C)[C@@H]1/C=C/CCOCc1ccccc1 (some centres undefined)
28.1 µM

* * *

Reported TGI values for a set of compounds
system: CCRF-CEM leukemia; experiment: NCI tumour cell line growth inhibition, 48 h
Where a SMILES comes first, the peptide text is derived from it.

{"compound": "COc1c2c(cc3c1C(O)N1CC[C@]34[C@H]3O[C@H]3[C@H](OC)C[C@@H]14)OCO2 (some centres undefined)", "result": "14.2 µM"}
{"compound": "O=C1c2cc3c(cc2-c2c1c1ccc(Cl)cc1c(=O)n2C[C@H](O)[C@@H](O)[C@H](O)CO)OCO3", "result": "17 µM"}
{"compound": "CC(C)CC(NC(=O)C(CC(C)C)NC(=O)C(Cc1cnc[nH]1)NC(=O)C(C)NC(=O)C(NC(=O)C(C)NC(=O)C(Cc1c[nH]c2ccccc12)NC(=O)C(CCC(=O)O)NC(=O)C(N)Cc1ccccc1)C(C)C)C(N)=O (centres undefined) (H-FEWAVAHLL-NH2; configuration not given here)", "result": "> 100 µM"}
{"compound": "OC(c1cccnc1)C(F)(F)c1nc2ccccc2o1 (centres undefined)", "result": "> 100 µM"}
{"compound": "Cc1cc(C)c(O)c(Cc2cccc(Cc3cc(C)cc(C)c3O)c2O)c1", "result": "> 100 µM"}

# query: TGI of entry O=c1c2ccccc2nc(-c2ccc(Br)cc2)n1NC1OC(CO)C(O)C(O)C1O (centres undefined)
> 100 µM

Reported TGI, compound O=C(O)C1NCCc2c1[nH]c1ccccc21 (centres undefined) : ____
> 100 µM

// returns reported TGI for input CCC(C)OC(=O)C1C2CCC(O2)C1C(=O)O (centres undefined)
> 100 µM

Name the recorded TGI for NC(=O)N/N=C(\C(=O)C(=O)Nc1ccc(Cl)c(C(F)(F)F)c1)c1nc2ccc(C(=O)c3ccccc3)cc2[nH]c1=O .
> 100 µM

What TGI value was documented for this compound, C=C[C@]1(C)CCC2=C(CCC3C2(C)CCC[C@]3(C)CO)C1 (some centres undefined) ?
> 100 µM

What TGI value was documented for this compound, CCCN1CN(C(C(=O)N[C@@H]2C(=O)N3C2SC(C)(C)C3C(=O)O)c2ccccc2)CSC1=S (some centres undefined) ?
> 100 µM

I have this compound here, CC(=O)OCCCCn1cnc2nc(Nc3ccccc3)nc(Cl)c21 , and I need its recorded TGI.
> 100 µM

Look up TGI for this compound: CC(=O)NC(CCCCNC(=O)N(CCCl)N=O)C(=O)NCc1ccccc1 (centres undefined)
> 100 µM

* * *

test system: SW-620 colon; test: NCI tumour cell line growth inhibition, 48 h
Recorded TGI for the following molecules

{"molecule": "CS(=O)(=O)c1nc(-c2cc3c(c(S(C)(=O)=O)n2)CCCC3)cc2c1CCCC2", "TGI": "> 100 µM"}
{"molecule": "CC(=O)OCc1cc(OC(C)=O)cnc1COC(C)=O", "TGI": "> 100 µM"}
{"molecule": "CNNCc1ccc(C(=O)NC(C)C)cc1", "TGI": "> 500 µM"}
{"molecule": "COC(=O)C(C(=O)C(=O)NC1=C(Cl)C(=O)c2ccccc2C1=O)c1csc(-n2nc(-c3ccccc3)cc2-c2ccccc2)n1 (stereo unspecified)", "TGI": "> 100 µM"}
{"molecule": "COc1[nH]c(C(Cl)(Cl)Cl)c(Cl)c(=O)c1Cl", "TGI": "> 100 µM"}
{"molecule": "COC(=O)[C@@H]1C[C@H]([Se]c2ccccc2)CN1S(=O)(=O)c1ccc(C)cc1", "TGI": "> 100 µM"}
{"molecule": "COc1ccccc1C(C1=C(O)COC1=O)c1cc2c(cc1OC(C)=O)OCO2 (stereo unspecified)", "TGI": "> 100 µM"}
{"molecule": "O=C1CCCC2=C(N1)C(=O)C=CC2=O", "TGI": "37.9 µM"}

Give its TGI value. Item: COc1cc(C#N)cc(OC)c1OCCOCCOc1c(OC)cc(C#N)cc1OC
> 100 µM

Which TGI is reported for this molecule? CCCCCCCC/C=C\CCCCCCC(F)C(=O)O (stereo unspecified)
> 12.5 µM

# query: TGI of entry O=C(Nc1nccs1)c1cc2c(cc1Cl)Sc1nccn1S2(=O)=O
42 µM

* * *

system: COLO 205 colon; assay: NCI tumour cell line growth inhibition, 48 h
Reported values of TGI for individual entries

{"molecule": "Cc1ccc(S(=O)(=O)OC2=C/C(=N\\c3onc(C)c3C)c3ccccc3C2=O)cc1", "target_entity": "COLO 205 colon", "TGI": "> 100 µM"}
{"molecule": "COc1ccc(N(CC(=O)NCCC[Te]c2ccccc2)C(=O)CCSC2=C(C)C(=O)c3ccccc3C2=O)cc1", "target_entity": "COLO 205 colon", "TGI": "3.64 µM"}

Consider the molecule shown here: Cc1cc2c(cc1Cl)SC(N/N=C(\N)c1ccc(Cl)cc1)=NS2(=O)=O What is its recorded TGI?
> 100 µM

Which TGI is reported for this molecule? CC[C@@]1(O)C(=O)OCc2c1cc1n(c2=O)Cc2c-1nc1ccc(O)cc1c2CC[Si](C)(C)C
1.16 µM

Please look up its TGI: COC(=O)N/N=C(/CCN1CCCC1)CC(c1ccccc1)c1c(O)c2ccccc2oc1=O (stereo not given)
> 100 µM

Name the reported TGI value associated with the molecule COc1ccc(-c2cc(=O)c3c(OC)c(OC)c(OC)c(OC)c3o2)cc1OC
> 100 µM

For the molecule shown here, CCCCOC(=O)C1CN2C=CC=NC2=NC1(C(F)(F)F)C(F)(F)F (stereo not given) , give the reported TGI.
> 100 µM

Param item = CC1(C)OC(C(N)=O)=C(C(N)=O)O1 ; retrieve measured TGI.
> 100 µM

* * *

# collection of GI50 values tested on OVCAR-4 ovarian

Sample records with GI50:
{"smiles_structure": "c1cc(OCCN2CCCCCC2)ccc1CNc1ccc2nc(CCC3CCCCC3)[nH]c2c1", "GI50": "3.2 µM"}
{"smiles_structure": "S=c1nc2[nH]ncc2c(N/N=C/c2ccccc2)[nH]1", "GI50": "> 100 µM"}

Please provide the recorded GI50 for CN(C)CCCN(c1nc(C(Cl)(Cl)Cl)ns1)c1nc(C(Cl)(Cl)Cl)ns1 , tested on OVCAR-4 ovarian.
2.21 µM

Field: GI50 (OVCAR-4 ovarian). Entry: CCOC(=O)/C(=C/c1ccc([N+](=O)[O-])cc1)C(=O)c1ccccc1
3.44 µM

Give GI50 (OVCAR-4 ovarian) of the following compound: COc1ccc(/C(C)=C(\c2ccc(Cl)cc2)c2ccc(OCCN3CCCC3)cc2)cc1F
3.21 µM
